Molecular target: Fibroblast growth factor receptor 2 (Homo sapiens, UniProt P21802, N549H)
Sequence (P21802 22-821 N549H limits assumed): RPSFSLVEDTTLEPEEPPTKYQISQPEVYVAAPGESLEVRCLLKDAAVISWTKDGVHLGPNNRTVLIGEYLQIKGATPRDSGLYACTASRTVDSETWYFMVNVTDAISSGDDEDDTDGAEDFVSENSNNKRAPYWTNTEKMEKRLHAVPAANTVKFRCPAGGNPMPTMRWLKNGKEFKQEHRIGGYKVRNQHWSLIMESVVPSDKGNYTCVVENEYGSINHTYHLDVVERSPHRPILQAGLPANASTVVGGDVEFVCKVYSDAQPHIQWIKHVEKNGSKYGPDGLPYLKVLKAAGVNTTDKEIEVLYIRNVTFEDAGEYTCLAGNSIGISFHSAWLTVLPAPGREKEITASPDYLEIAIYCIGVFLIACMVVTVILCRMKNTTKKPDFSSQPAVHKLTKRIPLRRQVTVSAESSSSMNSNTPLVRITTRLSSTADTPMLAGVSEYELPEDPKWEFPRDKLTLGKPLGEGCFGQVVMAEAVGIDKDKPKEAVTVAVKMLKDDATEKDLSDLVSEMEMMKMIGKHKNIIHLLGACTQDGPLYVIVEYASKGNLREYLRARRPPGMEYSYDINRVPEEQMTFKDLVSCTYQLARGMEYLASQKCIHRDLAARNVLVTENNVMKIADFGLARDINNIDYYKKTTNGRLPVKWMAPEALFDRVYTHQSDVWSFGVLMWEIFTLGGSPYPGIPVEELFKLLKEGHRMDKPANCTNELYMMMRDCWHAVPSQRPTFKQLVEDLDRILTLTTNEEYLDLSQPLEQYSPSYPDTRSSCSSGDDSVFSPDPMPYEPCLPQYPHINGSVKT
IC50 listing for selected compounds.

querySmiles: COc1cc(OC)c(Cl)c(Nc2ncccc2-c2ncnc(Nc3ccc(N4CCOCC4)cc3)n2)c1Cl
experimentalSystem: Fibroblast growth factor receptor 2 (Homo sapiens, UniProt P21802, N549H)
resultUnits: nM
measurementQualifier: =
IC50: 37.7
--
querySmiles: COc1cc(OC)c(Cl)c(Nc2ncccc2-c2ncnc(Nc3ccc(N4CCOCC4)nc3)n2)c1Cl
experimentalSystem: Fibroblast growth factor receptor 2 (Homo sapiens, UniProt P21802, N549H)
resultUnits: nM
measurementQualifier: =
IC50: 3.09
--
querySmiles: COc1cc(OC)c(Cl)c(Nc2ncccc2-c2ncnc(Nc3ccc(N4C[C@@H](C)N[C@@H](C)C4)cc3)n2)c1Cl
experimentalSystem: Fibroblast growth factor receptor 2 (Homo sapiens, UniProt P21802, N549H)
resultUnits: nM
measurementQualifier: =
IC50: 0.52
--
querySmiles: COc1cc(OC)c(Cl)c(Nc2ncccc2-c2ncnc(Nc3ccc(N4CCC(O)CC4)cc3)n2)c1Cl
experimentalSystem: Fibroblast growth factor receptor 2 (Homo sapiens, UniProt P21802, N549H)
resultUnits: nM
measurementQualifier: =
IC50: 6.05
--
querySmiles: COc1cc(OC)c(Cl)c(Nc2ncccc2-c2ncnc(Nc3ccc(N(C)C)cc3)n2)c1Cl
experimentalSystem: Fibroblast growth factor receptor 2 (Homo sapiens, UniProt P21802, N549H)
resultUnits: nM
measurementQualifier: =
IC50: 14.7
--
querySmiles: COc1cc(OC)c(Cl)c(Nc2ncccc2-c2ncnc(Nc3cnn(C)c3)n2)c1Cl
experimentalSystem: Fibroblast growth factor receptor 2 (Homo sapiens, UniProt P21802, N549H)
resultUnits: nM
measurementQualifier: <
IC50: 0.5
--
querySmiles: COc1cc(OC)c(Cl)c(Nc2ncccc2-c2ncnc(Nc3ccccc3)n2)c1Cl
experimentalSystem: Fibroblast growth factor receptor 2 (Homo sapiens, UniProt P21802, N549H)
resultUnits: nM
measurementQualifier: =
IC50: 2.51
--
querySmiles: COc1cc(OC)c(Cl)c(Nc2ncccc2-c2ncnc(Nc3cnn(C4CCN(C(C)C)CC4)c3)n2)c1Cl
experimentalSystem: Fibroblast growth factor receptor 2 (Homo sapiens, UniProt P21802, N549H)
resultUnits: nM
measurementQualifier: <
IC50: 0.5
--
querySmiles: COc1cc(OC)c(Cl)c(Nc2ncccc2-c2ncnc(NCCN(C)C)n2)c1Cl
experimentalSystem: Fibroblast growth factor receptor 2 (Homo sapiens, UniProt P21802, N549H)
resultUnits: nM
measurementQualifier: =
IC50: 368
--
querySmiles: COc1cc(OC)c(Cl)c(Nc2ncccc2-c2ncnc(Nc3cnn(CCCN(C)C)c3)n2)c1Cl
experimentalSystem: Fibroblast growth factor receptor 2 (Homo sapiens, UniProt P21802, N549H)
resultUnits: nM
measurementQualifier: =
IC50: 3.96
--
querySmiles: CCN1CCN(c2ccc(Nc3cc(-c4cccnc4Nc4c(Cl)c(OC)cc(OC)c4Cl)ncn3)cc2)CC1
experimentalSystem: Fibroblast growth factor receptor 2 (Homo sapiens, UniProt P21802, N549H)
resultUnits: nM
measurementQualifier: =
IC50: 6.06
--
querySmiles: CCN1CCN(c2cccc(Nc3ncnc(-c4cccnc4Nc4c(Cl)c(OC)cc(OC)c4Cl)n3)c2)CC1
experimentalSystem: Fibroblast growth factor receptor 2 (Homo sapiens, UniProt P21802, N549H)
resultUnits: nM
measurementQualifier: =
IC50: 0.6
--
querySmiles: COc1cc(N2C[C@@H](C)N[C@@H](C)C2)ccc1Nc1ncnc(-c2cccnc2Nc2c(Cl)c(OC)cc(OC)c2Cl)n1
experimentalSystem: Fibroblast growth factor receptor 2 (Homo sapiens, UniProt P21802, N549H)
resultUnits: nM
measurementQualifier: =
IC50: 32.9
--
querySmiles: COc1cc(N2CCN(C)CC2)ccc1Nc1ncnc(-c2cccnc2Nc2c(Cl)c(OC)cc(OC)c2Cl)n1
experimentalSystem: Fibroblast growth factor receptor 2 (Homo sapiens, UniProt P21802, N549H)
resultUnits: nM
measurementQualifier: =
IC50: 75.3
--
querySmiles: COc1cc(OC)c(Cl)c(Nc2ncccc2-c2ncnc(Nc3cnn(C4CCNCC4)c3)n2)c1Cl
experimentalSystem: Fibroblast growth factor receptor 2 (Homo sapiens, UniProt P21802, N549H)
resultUnits: nM
measurementQualifier: =
IC50: 2.53
--
querySmiles: C=CCn1cc(Nc2ncnc(-c3cccnc3Nc3c(Cl)c(OC)cc(OC)c3Cl)n2)cn1
experimentalSystem: Fibroblast growth factor receptor 2 (Homo sapiens, UniProt P21802, N549H)
resultUnits: nM
measurementQualifier: =
IC50: 26
--
querySmiles: COc1cc(OC)c(Cl)c(Nc2ncccc2-c2ncnc(N)n2)c1Cl
experimentalSystem: Fibroblast growth factor receptor 2 (Homo sapiens, UniProt P21802, N549H)
resultUnits: nM
measurementQualifier: =
IC50: 31.4
--
querySmiles: COc1cccc(Nc2ncnc(-c3cccnc3Nc3c(Cl)c(OC)cc(OC)c3Cl)n2)c1
experimentalSystem: Fibroblast growth factor receptor 2 (Homo sapiens, UniProt P21802, N549H)
resultUnits: nM
measurementQualifier: =
IC50: 6.36
--
querySmiles: COc1cc(OC)c(Cl)c(Nc2ncccc2-c2ncnc(Nc3ccc(N4CCN(C(C)=O)CC4)cc3)n2)c1Cl
experimentalSystem: Fibroblast growth factor receptor 2 (Homo sapiens, UniProt P21802, N549H)
resultUnits: nM
measurementQualifier: =
IC50: 4.49
--
querySmiles: COc1cc(OC)c(Cl)c(Nc2ncccc2-c2ncnc(Nc3cnn(C4CCOCC4)c3)n2)c1Cl
experimentalSystem: Fibroblast growth factor receptor 2 (Homo sapiens, UniProt P21802, N549H)
resultUnits: nM
measurementQualifier: =
IC50: 13.8
